Sourced from patent US20100310640A1

- Tested on: T1, HLA-DR DRB1*0101 (human)
- T1 chain 1: not shown
- T1 chain 2: not shown
- Assay details: radioligand inhibition, purified HLA-DR
- Settings: remark: other sources report otherwise
Observed property: pIC50
One number for each entry, as −log10 of the molar value.

Example entries begin here.
Binder	Observed property	Numeric result
TEILKGGVLIQRNPQ [Her2/neu.146]	pIC50	7.96
DNSIRPEELLQMELL [Cyclin D1.129]	pIC50	5.34
PPSMVAAGSVVAAVQ [Cyclin D1.109]	pIC50	8.17

Let us examine a further case.
Memo: VAAVQGLNLRSPNNF [Cyclin D1.209] , reported pIC50: 7.36
